Recorded measurements of TGI, one per entry
- System: SF-539 CNS
- protocolDetails: NCI tumour cell line growth inhibition, 48 h

Past entries and their recorded results:
[[record]]
compound = "O=C(OCC1OC(c2nn[nH]n2)C(OC(=O)c2ccccc2)C1OC(=O)c1ccccc1)c1ccccc1 (stereo unspecified)"
result = "> 100 µM"

[[record]]
compound = "CC(C)=CC(=O)Cc1nc2cc(C)c(C)cc2[nH]c1=O"
result = "> 100 µM"

[[record]]
compound = "CC(=O)Oc1ccccc1C(=O)O"
result = "> 100 µM"

[[record]]
compound = "CCOC(=O)CCC(NC(=O)c1ccc(Nc2nc3ccccc3nc2-c2cccs2)cc1)C(=O)OCC (stereo unspecified)"
result = "> 100 µM"

[[record]]
compound = "O=C(O)c1ccc(C(c2c(O)c3ccccc3oc2=O)c2c(O)c3ccccc3oc2=O)cc1"
result = "> 100 µM"


-- ask Identify the reported TGI for the following entry. NC1=NNC2(C(N)=N1)c1ccccc1-c1ccccc12
-- reply > 10 µM

-- ask Identify the reported TGI for the following entry. O=[n+]1c2ccccc2n([O-])c2cc(Br)ccc21
-- reply 37.5 µM

-- ask Identify the reported TGI for the following entry. O=C(/C=C/c1ccco1)CC(=O)/C=C/c1ccco1
-- reply 21.2 µM

-- ask Identify the reported TGI for the following entry. COc1ccc(/C=C/C(=O)N[C@@H]2C(=O)N3[C@@H]2SC(C)(C)[C@@H]3C(=O)O)cc1
-- reply > 100 µM

-- ask Identify the reported TGI for the following entry. O=C(/C=C\c1ccc(Cl)cc1Cl)c1cccs1
-- reply 36.5 µM

-- ask Identify the reported TGI for the following entry. COc1ccc(/C(C)=N/OC(=O)c2c(-c3ccccc3Cl)noc2C)cc1CN1CCOCC1
-- reply 56.7 µM

---

- Tested on: SNB-75 CNS
- protocolDetails: NCI tumour cell line growth inhibition, 48 h
Recorded measurements of TGI, one per entry
// return numeric value only (unit: µM, not printed)

[[record]]
smilesrecord = "CCC(=C/[C@H](C)C/C=C/C(C)=C/[C@@H](C)C(=O)[C@@H](C)[C@H](O)[C@@H](C)CC)/C=C/[C@H]1OC(=O)C=C[C@H]1C"
units = "µM"
numericvalue = 0.0854


-- ask Supply TGI measured with SNB-75 CNS for CCCN(CCC)c1ccc(/C=N/NC(=O)c2cccnc2)c(Cl)c1 .
-- reply 39.9

---

- Test system: SK-MEL-2 melanoma
- protocolDetails: NCI tumour cell line growth inhibition, 48 h
Recorded measurements of TGI, one per entry

Past entries and their recorded results:
[[record]]
molecule = "FC(F)(Sc1ccccc1)c1nc2ccccc2o1"
attributemeasured = "TGI"
result = "> 100 µM"

[[record]]
molecule = "COc1ccc(/C=C/C(=O)N[C@@H]2C(=O)N3[C@@H]2SC(C)(C)[C@@H]3C(=O)O)cc1"
attributemeasured = "TGI"
result = "> 100 µM"

[[record]]
molecule = "C=C1C(=O)O[C@H]2[C@H]1CC/C(COC(=O)NCc1c[nH]c3ccc(Cl)cc13)=C\\CC[C@@]1(C)O[C@@H]21"
attributemeasured = "TGI"
result = "2.87 µM"

[[record]]
molecule = "OCCN(CCO)c1ccc2c(c1)Cc1ccccc1-2"
attributemeasured = "TGI"
result = "63.2 µM"

[[record]]
molecule = "COc1cc2c3c(n(CCCNCCCNCCCn4c5c(c6ccccc6c4=O)C(=O)c4ccccc4-5)c(=O)c2cc1OC)-c1cc2c(cc1C3=O)OCO2"
attributemeasured = "TGI"
result = "3.1 µM"


// moving on: another record for TGI
-- ask Identify the reported TGI for the following entry. CCCCN1C(=O)NC(Cc2ccccc2)C1=O (stereo not drawn)
-- reply > 100 µM
